Target: T1, His-tagged human CD40 (h-CD40-his) recombinant protein (human, UniProt P25942 21-193)
T1 construct: range 21-193; Bought from Acrobiosystems; also called Human CD40-his; not shown: His tag
T1 sequence (P25942 21-193 limits assumed): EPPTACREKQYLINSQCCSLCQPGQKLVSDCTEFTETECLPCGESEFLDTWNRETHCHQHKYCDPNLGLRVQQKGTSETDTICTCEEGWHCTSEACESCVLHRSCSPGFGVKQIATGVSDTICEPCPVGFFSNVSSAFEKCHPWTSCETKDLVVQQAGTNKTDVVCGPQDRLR
Assay: ELISA, human CD40-his coated
Procedure: Binding properties of anti-CD40 antibodies was detected by ELISA assay. The CD40 recombinant protein with his-tag was directly used for coating, after the antibody was added, the binding activity of the antibody to the antigen—was detected by adding a secondary antibody (HRP-conjugated anti-antibody Fc antibody) and HRP substrate TMB. A 96-well microtiter plate was coated with 100 μl/well of human or rhesus CD40-his protein at a concentration of 0.5 μg/ml and incubated overnight at 4° C. […]
Under this convention, Yes denotes EC50 strictly below 2 ng/mL and No denotes EC50 at or above 2 ng/mL.

Before answering, review these 4 worked examples.
Binder | Assigned class
humanized anti-CD40 antibody hu2H6 (H1b heavy chain and L1c light chain) (antibody, human IgG1, kappa, V domains shown, the suffix -11 is not explained; Human IgG1/kappa; also called Hu2H6-11) VH: QVQLVQSGAEVKKPGSSVKVSCKASGYAFSDYLIEWVRQAPGQGLEWMGVINPGSGGSNYNEKIKDRVTLTADKSTSTAYMELSSLRSEDTAVYYCARGGGGFTYWGQGTLVTVSS VL: DIQLTQSPSSLSASVGDRVTITCRASQDISNYLNWYQQKPGKTIKLLLNFASRLHSGVPSRFSGSGSGTDFTFTISSLQPEDIATYYCQQGSTLPWTFGGGTKVEIKR | No
humanized anti-CD40 antibody hu9E5 (H1c heavy chain and L1a light chain) (antibody, human IgG1, kappa, V domains shown, the suffix -25 is not explained; Human IgG1/kappa; also called Hu9E5-25) VH: QVQLVQSGAEVKKPGASVKVSCKASGYILTTYWITWVRQAPGQGLEWMGDIHPGSGSTKYNEKFKSRVTLTVDTSISTAYMELSRLRSEDTAVYYCARRDYWGQGTTVTVSS VL: DIVMTQSPLSLPVTPGEPASISCRSSQNIVNSQGNTYLEWYLQKPGQSPQLLIYKVTNRFSGVPDRFSGSGSGTDFTLKISRVEAEDVGVYYCFQASLVPWTFGGGTKVEIKR | Yes
mouse hybridoma anti-human CD40 antibody 1D9 (antibody, V domains shown, Murine hybridoma antibody) VH: QVRLQQSGAELVRPGTSMRVSCKASGYAFTNYLINWVKQRPGQGLEWIGILNPGSGGTNYNENFKDKATLTADKSSNTAYMQLSSLTSEDSAVYFCIRGSPGFAYWGQGTLVTVSA VL: DIQMTQTTSSLSASLGDRVTISCRASQDINIYLNWYQQKPDGTVKLLIYSTSGLHSGVPSRFNGSGSGTDYSLTISNLEQEDIATYFCQQGYTLPYTFGGGTKLEIK | No
human-mouse chimeric antibody 9E5-C (antibody, V domains shown, Variable regions of murine 9E5 ligated to the constant region of human antibody IgG1; made in HEK293 cells) VH: QVQLQQPGADLVKPGASVKMSCKASGYILTTYWITWVKQRPGQGLEWIGDIHPGSGSTKYNEKFKSKATLTVDTSSSTAYMQLTRLSSEDSAVYYCARRDYWGQGTTLTVSS VL: DVLMTQSPLSLPVSLGDQASISCRSSQNIVNSQGNTYLEWYLQKPGESPKLLIYKVTNRFSGVPDRFSGSGSGTDFTLKISRVEAEDLGVYYCFQASLVPWTFGGGTKLEIK | Yes

q: Given mouse hybridoma anti-human CD40 antibody 2H6 (antibody, V domains shown, Murine hybridoma antibody; also called mouse mAb 2H6) VH: QVQLQQSGAELVRPGTSVKVSCKASGYAFSDYLIEWAKQRPGQGLEWIGVINPGSGGSNYNEKIKDRATLTADKSSSTAYMQLSSLTSEDSAVYFCARGGGGFTYWGQGTLVTVSA VL: EIQLTQTTSSLSASLGDRVTISCRASQDISNYLNWYQQKPDGTIKLLLNFASRLHSGVPSRFSGSGSGTDFFLTISNLEQDDIATYFCQQGSTLPWTFGGGTKLEIK , is recorded EC50 strictly lower than 2 ng/mL?
a: No

q: Lab log: compare recorded EC50 with 2 ng/mL; is it strictly lower for mouse hybridoma anti-human CD40 antibody 9E5 (antibody, V domains shown, Murine hybridoma antibody; also called mouse 9E5) VH: QVQLQQPGADLVKPGASVKMSCKASGYILTTYWITWVKQRPGQGLEWIGDIHPGSGSTKYNEKFKSKATLTVDTSSSTAYMQLTRLSSEDSAVYYCARRDYWGQGTTLTVSS VL: DVLMTQSPLSLPVSLGDQASISCRSSQNIVNSQGNTYLEWYLQKPGESPKLLIYKVTNRFSGVPDRFSGSGSGTDFTLKISRVEAEDLGVYYCFQASLVPWTFGGGTKLEIK ?
a: No
